# System: cutaneous anaphylaxis
# assay: Passive cutaneous anaphylaxis in rats (method of Ovary), anti-allergic activity
# Assay type: in vivo, rat
# condition.notes: Rattus norvegicus; male rats 180-220 g; intravenous, followed immediately by antigen/Evans blue challenge; anti-ovalbumin antiserum ID 3 days before; compounds used as tris(hydroxymethyl)methylamine salts; read-out: ED50 (dose of drug giving 50% inhibition)
Listing: ED50 of selected compounds
measurement.name: ED50 (mg/kg)

1) CS(=O)(=NC(=O)c1ccccc1)c1ccc2oc3ccc(C(=O)O)cc3c(=O)c2c1 (stereo not shown) : 0.68
2) CCCCCCc1cc(S(C)(=O)=NC(N)=O)cc2c(=O)c3cc(C(=O)O)ccc3oc12 (stereo not shown) : 0.008
3) Cc1ccc(S(=O)(=O)N=S(C)c2ccc3oc4ccc(C(=O)O)cc4c(=O)c3c2)cc1 (stereo not shown) : 0.43
4) CC(=O)N=S(C)(=O)c1ccc2oc3ccc(C(=O)O)cc3c(=O)c2c1 (stereo not shown) : 0.065
